Tested on: Key Broadleaf Weed and Crop Species
METHOD_NOTES: Post-emergent Test II herbicidal activity (Table 15)
Assay type: in vivo
CONDITION: Chenopodium album, post-emergence, 336 h, lambsquarters (Chenopodium album), 140 g ai/ha, 14 d, read-out: Visual Growth Reduction (%) 14 Days After Application, CHEAL
Text: Post-emergent Test II: Seeds or nutlets of the desired test plant species were planted in Sun Gro Metro-Mix® 360 planting mixture, which typically has a pH of 6.0 to 6.8 and an organic matter content of about 30 percent, in plastic pots with a surface area of 64 square centimeters. When required to ensure good germination and healthy plants, a fungicide treatment and/or other chemical or physical treatment was applied. […]
Here, each record is paired with measured pest or weed control at 140 g/ha data.

// query Any idea what pest or weed control at 140 g/ha came out for COC(=O)c1nc(-c2ccc(Cl)c3occc23)nc(N)c1Cl on Key Broadleaf Weed and Crop Species?
// result 95 to 100%

---

Here, each record is paired with measured pest or weed control at 35 g/ha data.
System: Key Broadleaf Weed and Crop Species
METHOD_NOTES: Post-emergent Test II herbicidal activity (Table 15)
Type: in vivo
CONDITION: Amaranthus retroflexus, post-emergence, 336 h, redroot pigweed (Amaranthus retroflexus), 35 g ai/ha, 14 d, read-out: Visual Growth Reduction (%) 14 Days After Application, AMARE

> print(dat)
                               smiles.repr    reported
1  COc1c(N)nc(-c2ccc(Cl)c3occc23)nc1C(=O)O  95 to 100%
2  Nc1nc(-c2ccc(Cl)c3occc23)nc(C(=O)O)c1Cl  95 to 100%
3     COC(=O)c1nc(-c2cccc3ccsc23)cc(N)c1Cl   85 to 94%

We next turn to a different compound, shown below.
// query I have this compound here, COC(=O)c1nc(-c2cccc3c2cnn3C)c(F)c(N)c1Cl , and I need its recorded pest or weed control at 35 g/ha.
// result 0 to 29%

---

Here, each record is paired with measured GR50, VERPE data.
Test system: Wheat and Barley and test plant species
METHOD_NOTES: Post-emergent Test III, herbicidal activity in wheat and barley (Table 17; visual injury, GR20/GR50/GR80/GR90)
Assay type: in vivo
CONDITION: VERPE; dose for 50 percent growth reduction; probit analysis; 21 d
The response must be a number in g ai/ha with no trailing unit.

> print(dat)
                                smiles.repr                             study.target  reported
1  COC(=O)c1nc(-c2ccc3cc[nH]c3c2F)cc(N)c1Cl  Wheat and Barley and test plant species         1
2  Nc1c(F)c(-c2ccc3cc[nH]c3c2F)nc(C(=O)O)c1Cl  Wheat and Barley and test plant species    0.0004

// query I have this compound here, COC(=O)c1nc(-c2ccc(Cl)c3ccoc23)c(F)c(N)c1Cl , and I need its recorded GR50, VERPE.
// result 30

// query Please give the result for COC(=O)c1nc(-c2ccc3cc[nH]c3c2F)c(F)c(N)c1Cl too.
// result 0.28

---

System: Wheat and Barley and test plant species
METHOD_NOTES: Post-emergent Test III, herbicidal activity in wheat and barley (Table 17; visual injury, GR20/GR50/GR80/GR90)
Assay type: in vivo
CONDITION: TRZAS; 17.5 g ai/ha; post-emergent; 21 d
RECORDED_ENDPOINT: Visual Growth Reduction (%) 21 Days After Application, TRZAS

> print(dat)
                                smiles.repr  reported
1  Nc1c(F)c(-c2ccc3cc[nH]c3c2F)nc(C(=O)O)c1Cl  G (0-29)
2  COC(=O)c1nc(-c2ccc(Cl)c3ccoc23)c(F)c(N)c1Cl  G (0-29)
3  COC(=O)c1nc(-c2ccc3cc[nH]c3c2F)cc(N)c1Cl  G (0-29)
